System: human APOE RNA
Experiment: Dose-dependent inhibition of human APOE RNA in HepG2 cells, electroporation, 50,000 cells per well, RT-PCR normalized to GAPDH (Example 4, Tables 8-10)
Format: cell-based
Settings: 82 nM; HepG2, electroporation, 24-hour treatment
Strand notation (5' to 3'): a small letter for the sugar, then the base; units joined by * are phosphorothioate-linked, units joined directly phosphodiester-linked; [ ] holds rarer units or linkages, { } end groups; capitals alone tell only the bases. [ms] = mesyl phosphoramidate linkage; k = constrained ethyl (cEt); [5mC] = 5-methylcytosine; d = 2'-deoxy (DNA)
MEASUREMENT_TYPE: APOE RNA (% UTC)

1746812 (k[5mC]*dT[ms]dT[ms]dG[ms]kG*kT*dG[ms]dA[ms]dA[ms]dT*d[5mC]*dT*dT*dT*dA[ms]dT*dT[ms]kA*kA*kA; antisense) [Compound 1746812] = 102
1746807 (k[5mC]*kT*dT[ms]dG[ms]dG[ms]kT*dG[ms]dA[ms]dA[ms]dT*d[5mC]*dT*dT*dT*dA[ms]dT*dT[ms]kA*kA*kA; antisense) [Compound 1746807] = 86
1746796 (k[5mC]*kT*dT[ms]dG[ms]kG*dT[ms]dG[ms]dA[ms]dA[ms]dT*d[5mC]*dT*dT*dT*dA[ms]dT*kT*dA[ms]kA*kA; antisense) [Compound 1746796] = 137
1746806 (k[5mC]*kT*dT[ms]dG[ms]kG*dT[ms]dG[ms]dA[ms]dA[ms]dT*d[5mC]*dT*dT*dT*dA[ms]dT*dT[ms]kA*kA*kA; antisense) [Compound 1746806] = 91
1746790 (k[5mC]*dT[ms]kT*dG[ms]dG[ms]kT*dG[ms]dA[ms]dA[ms]dT*d[5mC]*dT*dT*dT*dA[ms]dT*kT*kA*dA[ms]kA; antisense) [Compound 1746790] = 112

----------
Measured APOE RNA (% control) Cortex accompanies every entry in the list below.
System: human APOE RNA
Assay: Duration of action study in APOE C57BL/6NTac-Apoeem7250 knock-in mice (Example 16)
Format: in vivo
Settings: cortex; 300 μg ICV; 14 days post-dose
Strand notation (5' to 3'): a small letter for the sugar, then the base; units joined by * are phosphorothioate-linked, units joined directly phosphodiester-linked; [ ] holds rarer units or linkages, { } end groups; capitals alone tell only the bases. [PN] = cyclic guanidine phosphoramidate internucleoside linkage; [ms] = mesyl phosphoramidate linkage; e = 2'-O-(2-methoxyethyl) (MOE); k = constrained ethyl (cEt); [5mC] = 5-methylcytosine; d = 2'-deoxy (DNA)
MEASUREMENT_TYPE: APOE RNA (% control) Cortex

1721304: 6-10-4 MOE gapmer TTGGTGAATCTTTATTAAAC, linkages s[pn][pn][pn]oosssssszzssoss (eT*eT[PN]eG[PN]eG[PN]eTeGdA*dA*dT*d[5mC]*dT*dT*dT[ms]dA[ms]dT*dT*eAeA*eA*e[5mC]) [compound 1721304] = 46 % control
1652902: 6-10-4 MOE gapmer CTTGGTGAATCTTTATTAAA, linkages sooooossssssssssoss (antisense e[5mC]*eTeTeGeGeTdG*dA*dA*dT*d[5mC]*dT*dT*dT*dA*dT*eTeA*eA*eA) [compound 1652902] = 43 % control
1652901: 6-10-4 MOE gapmer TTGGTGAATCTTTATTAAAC, linkages sooooossssssssssoss (antisense eT*eTeGeGeTeGdA*dA*dT*d[5mC]*dT*dT*dT*dA*dT*dT*eAeA*eA*e[5mC]) [compound 1652901] = 43 % control
^mCksTksTksGdzGdzTdzGdzAdzAdzTds^mCdsTdsTdsTdsAdsTdsTksAksAdzAk (antisense k[5mC]*kT*kT*dG[ms]dG[ms]dT[ms]dG[ms]dA[ms]dA[ms]dT*d[5mC]*dT*dT*dT*dA*dT*kT*kA*dA[ms]kA) [Compound No. 1785602] = 30 % control
1721308: 6-10-4 MOE gapmer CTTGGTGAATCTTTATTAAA, linkages s[pn][pn][pn]oossssssszzsoss (e[5mC]*eT[PN]eT[PN]eG[PN]eGeTdG*dA*dA*dT*d[5mC]*dT*dT*dT[ms]dA[ms]dT*eTeA*eA*eA) [compound 1721308] = 48 % control

----------
Tested on: human APOE RNA
Test: Activity in APOE C57BL/6NTac-Apoeem7250 knock-in mice, single ICV bolus, 20 weeks (Example 13)
Type: in vivo
Settings: cortex; single ICV bolus 300 μg; 20 weeks post treatment; normalized to mouse Ppia
Strand notation (5' to 3'): a small letter for the sugar, then the base; units joined by * are phosphorothioate-linked, units joined directly phosphodiester-linked; [ ] holds rarer units or linkages, { } end groups; capitals alone tell only the bases. [ms] = mesyl phosphoramidate linkage; e = 2'-O-(2-methoxyethyl) (MOE); k = constrained ethyl (cEt); [5mC] = 5-methylcytosine; d = 2'-deoxy (DNA)
Measured APOE RNA (% control) Cortex accompanies every entry in the list below.
MEASUREMENT_TYPE: APOE RNA (% control) Cortex

1778113 (eA*e[5mC]eTeTkG*kG*dT*dG[ms]dA[ms]dA*dT*d[5mC]*dT*dT*dT*dA[ms]eT*eT*eA*eA; antisense) [Compound 1778113] = 61
1736527: 6-10-4 MOE gapmer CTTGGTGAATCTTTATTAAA, linkages sssooozzsssssssssss (e[5mC]*eT*eT*eGeGeTdG[ms]dA[ms]dA*dT*d[5mC]*dT*dT*dT*dA*dT*eT*eA*eA*eA) [compound 1736527] = 64
1778127: modified oligonucleotide complementary to human APOE RNA (eA*e[5mC]eTeTkGkG*dT*dG[ms]dA[ms]dA*dT*d[5mC]*dT*dT*dT*dA[ms]kTeT[ms]eA[ms]eA; antisense) [compound 1778127] = 57
1778115: modified oligonucleotide complementary to human APOE RNA (eA*e[5mC]eTeTkGkG*dT*dG[ms]dA[ms]dA*dT*d[5mC]*dT*dT*dT*dA[ms]eTeT*eA*eA; antisense) [compound 1778115] = 77

----------
Measured pIC50 accompanies every entry in the list below.
System: human APOE RNA
Assay: Dose-dependent inhibition of human APOE RNA in HepG2 cells, electroporation, 24 hours (Example 6)
Type: cell-based
pIC50: −log10 of the molar value. Strand notation (5' to 3'): a small letter for the sugar, then the base; units joined by * are phosphorothioate-linked, units joined directly phosphodiester-linked; [ ] holds rarer units or linkages, { } end groups; capitals alone tell only the bases. [ms] = mesyl phosphoramidate linkage; e = 2'-O-(2-methoxyethyl) (MOE); k = constrained ethyl (cEt); [5mC] = 5-methylcytosine; d = 2'-deoxy (DNA)
MEASUREMENT_TYPE: pIC50

1736493 (e[5mC]*eTeT*eG*eG*eT*dG[ms]dA[ms]dA[ms]dT*d[5mC]*dT*dT*dT*dA[ms]dT*kT*kA*eA*eA; antisense) [Compound 1736493] = 6.85
1736519: 6-10-4 MOE gapmer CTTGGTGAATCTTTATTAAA, linkages sososszzzssssssssss (e[5mC]*eTeT*eGeG*eT*dG[ms]dA[ms]dA[ms]dT*d[5mC]*dT*dT*dT*dA*dT*eT*eA*eA*eA) [compound 1736519] = 6.47
1736534 (e[5mC]*eT*eT*eG*eGeT*dG[ms]dA[ms]dA[ms]dT*d[5mC]*dT*dT*dT*dA[ms]dT*kT*kA*eA*eA; antisense) [Compound 1736534] = 6.05
1736531 (e[5mC]*eT*eT*eG*eG*kTdG[ms]dA[ms]dA[ms]dT*d[5mC]*dT*dT*dT*dA[ms]dT*eT*eA*eA*eA; antisense) [Compound 1736531] = 6.03
1736492 (e[5mC]*eTeT*eG*eG*eT*dG[ms]dA[ms]dA[ms]dT*d[5mC]*dT*dT*dT*dA[ms]dT*kT*eA*eA*eA; antisense) [Compound 1736492] = 6.03

----------
System: human APOE RNA
Assay: Potency (dose response, ED50) in APOE C57BL/6NTac-Apoeem7250 knock-in mice, 4 weeks (Example 14)
Type: in vivo
Settings: spinal cord, ICV dose 300 μg
Strand notation (5' to 3'): a small letter for the sugar, then the base; units joined by * are phosphorothioate-linked, units joined directly phosphodiester-linked; [ ] holds rarer units or linkages, { } end groups; capitals alone tell only the bases. [ms] = mesyl phosphoramidate linkage; e = 2'-O-(2-methoxyethyl) (MOE); k = constrained ethyl (cEt); [5mC] = 5-methylcytosine; d = 2'-deoxy (DNA)
Measured APOE RNA (% control) Spinal Cord accompanies every entry in the list below.
MEASUREMENT_TYPE: APOE RNA (% control) Spinal Cord

1785598: modified oligonucleotide complementary to human APOE RNA (k[5mC]*kT*kT*dG[ms]dG[ms]dT[ms]dG[ms]dA[ms]dA[ms]dT*d[5mC]*dT*dT*dT*dA*dT[ms]kT*kA*dA[ms]kA; antisense) [compound 1785598] = 60 % control
1778154: modified oligonucleotide complementary to human APOE RNA (e[5mC]*eT*eTeGeGeT*dG[ms]dA[ms]dA*dT*d[5mC]*dT*dT*dT*dA*dT*kTkAeA*eA; antisense) [compound 1778154] = 43 % control
1757575 (eA*e[5mC]eTeT*kG*kG*dT*dG[ms]dA[ms]dA[ms]dT*d[5mC]*dT*dT*dT*dA[ms]kT*eT*eA*eA; antisense) [Compound 1757575] = 28 % control
1693105: 6-10-4 MOE gapmer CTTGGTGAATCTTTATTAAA, linkages sosssszzzssssszssss (e[5mC]*eTeT*eG*eG*eT*dG[ms]dA[ms]dA[ms]dT*d[5mC]*dT*dT*dT*dA[ms]dT*eT*eA*eA*eA) [compound 1693105] = 49 % control
1778131: modified oligonucleotide complementary to human APOE RNA (eA*e[5mC]eTeTeGkG*dT*dG[ms]dA[ms]dA*dT*d[5mC]*dT*dT*dT*dA[ms]kTkT*eA*eA; antisense) [compound 1778131] = 40 % control
1746809 (k[5mC]*dT[ms]kT*dG[ms]kG*dT[ms]dG[ms]dA[ms]dA[ms]dT*d[5mC]*dT*dT*dT*dA[ms]dT*dT[ms]kA*kA*kA; antisense) [Compound 1746809] = 48 % control
Aes^mCeoTeoTesGesGksTdsGdzAdzAdzTds^mCdsTdsTdsTdsAdzTksTksAesAe (eA*e[5mC]eTeT*eG*kG*dT*dG[ms]dA[ms]dA[ms]dT*d[5mC]*dT*dT*dT*dA[ms]kT*kT*eA*eA) [Compound No. 1757576] = 20 % control
1778130: modified oligonucleotide complementary to human APOE RNA (eA*e[5mC]eTeTeG*kG*dT*dG[ms]dA[ms]dA*dT*d[5mC]*dT*dT*dT*dA[ms]kTkT*eA*eA; antisense) [compound 1778130] = 22 % control
